- Tested on: Fibrinogen (Alexa647-labelled)
- test_description: fibrinogen binders on compound microarrays, profiling panel, artefact control for SMM control-protein annotation, biochemical, small-molecule microarray, 635/667 nm fluorescence (AID 1131);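 also: z-score merges 667 nm fluorescence with per-spot signal-to-noise over triplicate slides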
- recorded_conditions: fibrinogen-A647 binding fluorescence, higher = more signal

smiles_entry	experimental_target	composite z-score
COc1ccc([Si](C)(C)[C@@H]2[C@@H](CC(=O)N(CCO)Cc3ccccc3)O[C@]3(C(=O)N(Cc4cccc(N5C(=O)c6cccc7cccc5c67)c4)c4ccccc43)[C@H]2C)cc1	Fibrinogen (Alexa647-labelled)	0.725
C=C(/C(=C/C[C@H](OC(=O)c1ccncc1)c1ccc(CO)o1)c1cc(C(=O)OC)ccc1OC)C(C)C	Fibrinogen (Alexa647-labelled)	0.448
C=CCNC(=O)[C@@H]1[C@H]2C(=O)O[C@H](c3ccccc3)[C@H](c3ccccc3)N2[C@H](c2ccc(O)cc2)[C@@]12C(=O)N(C(=O)OCCOC)c1ccc(C#CC3(O)CCCCCC3)cc12	Fibrinogen (Alexa647-labelled)	-2.02
